- Tested on: Male ddY mice
- assayProtocol: Test of acute toxity [minimum lethal dose (MLD)]
- Type: in vivo
- experimentalParameters: oral, mice fasted 17 hours, observed for 7 days
// MLD (acute toxicity) lookup, one value per entry

{"compound": "COC(=O)c1ccccc1NC(=O)[C@H]1CC[C@H](CNC(=N)N)CC1.Cl.O", "systemName": "Male ddY mice", "MLD (acute toxicity)": "> 3,000 mg/kg"}
{"compound": "Cl.N=C(N)NC[C@H]1CC[C@H](C(=O)Nc2ccccc2C(=O)O)CC1.O", "systemName": "Male ddY mice", "MLD (acute toxicity)": "> 3,000 mg/kg"}
{"compound": "CCOC(=O)c1ccccc1NC(=O)[C@H]1CC[C@H](CNC(=N)N)CC1.Cl.O", "systemName": "Male ddY mice", "MLD (acute toxicity)": "> 3,000 mg/kg"}
{"compound": "Cl.N=C(N)NC[C@H]1CC[C@H](C(=O)Oc2ccccc2C(=O)OCc2ccccc2)CC1 [X, reference compound]", "systemName": "Male ddY mice", "MLD (acute toxicity)": "> 3,000 mg/kg"}
{"compound": "Cl.N=C(N)NC[C@H]1CC[C@H](C(=O)Nc2ccccc2)CC1 [Y, reference compound]", "systemName": "Male ddY mice", "MLD (acute toxicity)": "< 1,000 mg/kg"}

====

Listing: ED50 of selected compounds
- Test system: ethanol-induced gastric ulcer
- assayProtocol: Activity against ethanol-induced gastric ulcer
- Assay type: in vivo, Male Sprague-Dawley rats
- experimentalParameters: Rattus norvegicus; oral, rats, 30 min before 99.5% ethanol 1 ml orally; killed 1 hour after; read-out: ED50, Anti-ethanol-induced ulcer

{"compound": "Cl.N=C(N)NC[C@H]1CC[C@H](C(=O)Nc2ccccc2C(=O)O)CC1.O", "ED50 [mg/kg]": 41}
{"compound": "CCOC(=O)c1ccccc1NC(=O)[C@H]1CC[C@H](CNC(=N)N)CC1.Cl.O", "ED50 [mg/kg]": 36}
{"compound": "COC(=O)c1ccccc1NC(=O)[C@H]1CC[C@H](CNC(=N)N)CC1.Cl.O", "ED50 [mg/kg]": 42}
{"compound": "Cl.N=C(N)NC[C@H]1CC[C@H](C(=O)Nc2ccccc2)CC1 [Y, reference compound]", "ED50 [mg/kg]": 199}
{"compound": "Cl.N=C(N)NC[C@H]1CC[C@H](C(=O)Oc2ccccc2C(=O)OCc2ccccc2)CC1 [X, reference compound]", "ED50 [mg/kg]": 108}
